The values you see were collected from ChEMBL document CHEMBL3351817.

Test system: KM12
protocolSummary: Antiproliferative activity against human KM12 cells after 2 to 3 days by resazurin reduction assay
Assay type: functional
Provide the recorded GI50 for the entries that follow.
Give bare numbers, in nM.

Look over these answered cases.
NC(=O)c1c(N)n(-c2cc(C(=O)Nc3cccc(C(F)(F)F)c3)ccc2F)c2nc3ccccc3nc12 = 1870
NC(=O)c1c(N)n(-c2cc(NC(=O)c3cccc(C(F)(F)F)c3)ccc2F)c2nc3ccccc3nc12 = 2160
Cc1cn(-c2cc(NC(=O)c3ccc(C)c(-n4c(N)c(C(N)=O)c5nc6ccccc6nc54)c3)cc(C(F)(F)F)c2)cn1 = 2840

// query Any idea what GI50 was measured for NC(=O)c1c(N)n(-c2ccc(NC(=S)Nc3cccc(C(F)(F)F)c3)cc2)c2nc3ccccc3nc12 ?
// result 2520
